# Tested on: OVCAR-4 ovarian
# Method Summary: NCI tumour cell line growth inhibition, 48 h
Below: a set of entries, each annotated with reported TGI.

Solved entries:
Compound	Result
CCOC(=O)CC(=O)Nc1cccc2sc3ncccc3c(=O)c12	> 100 µM
C[C@@H](NC(=O)Cn1c(Cl)nc2ccccc21)c1ccccc1	> 100 µM
COc1cc(C2c3cc4c(cc3[C@@H](Nc3ccc([N+](=O)[O-])cc3)C3COC(=O)[C@H]23)OCO4)cc(OC)c1O (stereo not given in full)	62.4 µM
C=CCC(N[C@H](CO)c1ccccc1)c1ccccn1 (stereo not given in full)	> 100 µM
O=C(CSC(c1ccccc1)c1ccccc1)N/N=C/c1ccccc1Cl	77.2 µM
O=C1NC2(CCCCC2)C2CCCCC=C12 (stereo not given)	> 100 µM

Please look up its TGI: Cc1ccc2c(n1)NC(=O)C(Cc1ccccc1)(N=[N+]=[N-])C2=O (stereo not given)
> 100 µM

====

Below: a set of entries, each annotated with reported TGI.
# System: OVCAR-5 ovarian
# Method Summary: NCI tumour cell line growth inhibition, 48 h

Compound	Result
CC1(C)N=C(c2ccccc2)SC12S[C@@H]1CCCC[C@H]1S2	> 100 µM
CSc1ccc(NC(=O)Nc2cc(C)ccn2)cc1	> 100 µM
CC(NP(=O)(c1ccccc1)c1ccccc1)c1ccccc1 (stereo not drawn)	> 100 µM
C=CCSC1=N/C(=C\c2ccc(OC)cc2)C(=O)N1CC=C	> 100 µM

Please look up its TGI: CC(=O)OC1CC(OC2C(O)CC(OC3C(O)CC(OC4CCC5(C)C(CCC6C5CCC5(C)C(C7=CC(=O)OC7)CCC65O)C4)OC3C)OC2C)OC(C)C1OC1OC(CO)C(O)C(O)C1O (stereo not drawn)
0.116 µM

Also, O=NN1CCN=C1c1ccc([N+](=O)[O-])cc1 please.
> 100 µM

Also, CC(C)c1[nH]nc2c(NCc3ccc(-c4ccccn4)cc3)nc(SCCN(C)C)nc12 please.
11.2 µM

Also, COc1ccc(/C=C2\CCC(C)c3c2nc(N)c(C#N)c3-c2ccc(OC)c(OC)c2)cc1OC (stereo not drawn) please.
> 100 µM

Also, CC(C)N1C(C)[C@@H](c2ccccc2)O[P@@]1(=O)CC1=CCCCC1 (stereo partly drawn) please.
> 100 µM

Also, CCC[n+]1cc2cc3c(cc2c2c1-c1cc4c(cc1C2)OCO4)OCO3 (tested in a mixture with another compound) please.
29 µM

====

# System: UO-31 renal
# Method Summary: NCI tumour cell line growth inhibition, 48 h
Readout Kind: TGI (µM)
# value in µM; strip the unit string

> print(dat)
                                chem.smiles  quantitative.readout
1  N#Cc1c(N)nc(SCc2ccccc2)c(C#N)c1-c1ccc(O)cc1                   3.9
2         Cc1ccc(N=Nc2c(O)ccc3n[nH]nc23)cc1                  44.9

Continue with the compound presented below.
Identify the measured TGI of Cc1cc(-c2nc3n(c2/C=N/N=C(N)N)CCS3)c(C)s1 for UO-31 renal.
36.8

====

Below: a set of entries, each annotated with reported TGI.
# System: NCI-H460 lung
# Method Summary: NCI tumour cell line growth inhibition, 48 h

Solved entries:
Compound	Result
CC(C)[C@@H]1CC[C@@H](C)C[C@H]1OC(=O)/C=C1\C(C(=O)O[C@@H]2C[C@H](C)CC[C@H]2C(C)C)[C@H]2C=C[C@@H]1O2 (some centres undefined)	> 100 µM
NNC(=O)c1cc([N+](=O)[O-])ccc1NC(=O)C12CC3CC(CC(C3)C1)C2	62.8 µM
CCOC(=O)CC(=O)Nc1cccc2sc3ncccc3c(=O)c12	> 100 µM
C[C@@]1(C(=O)O)CCC[C@]2(C)C1CC[C@]13C[C@@](O)(CO)[C@](O)(CC[C@]12O)C3 (some centres undefined)	> 100 µM
CC(NP(=O)(c1ccccc1)c1ccccc1)c1ccccc1 (centres undefined)	> 100 µM
CC1CC(=NC2CCCCC2)Nc2ccccc2N1Cc1ccccc1 (centres undefined)	14.5 µM
Cc1cccc2c1Sc1ccccc1C2NC(=O)CN(C)C (centres undefined)	> 100 µM
CN(c1ccccc1)c1nc(=[N+]2CCCC2)ss1	> 100 µM
O=C1C=C(NCC(c2ccccc2)c2ccccc2)C(=O)c2ncccc21	1.92 µM
O=[N+]([O-])c1cccc(S(=O)(=O)N/N=C/c2cc(I)cc([N+](=O)[O-])c2O)c1	> 100 µM

Please look up its TGI: CC1(C2COC(=O)C2)SCCCS1 (centres undefined)
> 100 µM

Also, N#Cc1c(N)nc(SCc2ccccc2)c(C#N)c1-c1ccc(O)cc1 please.
> 65.8 µM

Also, CC(=O)N1C(CCc2ccccc2)CC(C)(C=O)C1Cc1ccc(O[Si](C(C)C)(C(C)C)C(C)C)cc1 (centres undefined) please.
9.05 µM

Also, O=S(O)CCCSSSCCCS(=O)O please.
> 100 µM

====

# System: CAKI-1 renal
# Method Summary: NCI tumour cell line growth inhibition, 48 h; in the data active means GI50 below about 0.43 µM; inactive means the rest
Pick from 1 (yes) = active, 0 (no) = inactive when you respond.

> print(dat)
                                   compound  category.label
1  Cc1nc2sc(C(=O)Nc3ccccc3)c(N)c2cc1C(O)c1ccccc1 (stereo not given)         1 (yes)
2         Cc1ccc(N=Nc2c(O)ccc3n[nH]nc23)cc1          0 (no)
3  CCC[n+]1cc2cc3c(cc2c2c1-c1cc4c(cc1C2)OCO4)OCO3 (tested in a mixture with another compound)          0 (no)
4  CC1=NN(c2cccc(Cl)c2)C(=O)/C1=C\C=C\c1ccccc1          0 (no)
5          c1cc(C2CCCCC2)ccc1-c1cnc2nonc2n1          0 (no)

Field: outcome | Entry: C#CCOc1cccc(Nc2ncnc3cc(NC(=O)C=C)ccc23)c1
0 (no)

====

# System: CCRF-CEM leukemia
# Method Summary: NCI tumour cell line growth inhibition, 48 h
Tag: 1 if measured TGI is not below 70 µM, -1 if it is.

See these solved cases before continuing.
Compound	Category Label
Cc1ccc(C2[C@H]3C(=O)N(c4ccc(Cc5ccc(N6C(=O)[C@@H]7ON(c8ccccc8)C(c8ccc(C)cc8)[C@@H]7C6=O)cc5)cc4)C(=O)[C@H]3ON2c2ccccc2)cc1 (some centres undefined)	1
c1csc(-c2ccc(CNc3c4ccccc4nc4ccccc34)cc2)c1	-1
Cc1ccc(NC(=S)C#N)c(C)c1	1
Cc1cccc(Nc2nc3ccccc3nc2NS(=O)(=O)c2ccccc2)c1	1
CC(C)N1C(C)[C@@H](c2ccccc2)O[P@@]1(=O)CC1=CCCCC1 (some centres undefined)	1
NNC(=O)c1cc([N+](=O)[O-])ccc1NC(=O)C12CC3CC(CC(C3)C1)C2	-1

Turning now to a further record.
Form field: TGI at least 70 µM? Entry: O=C(NCCCl)Nc1ccccc1
1

====

# Test system: T-47D breast
# Method Summary: NCI tumour cell line growth inhibition, 48 h
Below: a set of entries, each annotated with reported TGI.

Identify the measured TGI of CCn1cc(C(=O)N/N=C/c2cccs2)c(=O)c2cc(F)c(N3CCNC(C)C3)c(F)c21 (stereo unspecified) for T-47D breast.
3.45 µM

Also, c1ccc(C2=NN=C3C(c4ccccc4)=Nc4ccccc4N3C2)cc1 please.
> 100 µM

Also, CC(=O)NC1CC(C(C)(C)NC(C)=O)CC=C1C (stereo unspecified) please.
> 100 µM

Also, Cn1c2c(c3ccccc3c1=O)C(=O)c1ccccc1-2 please.
> 100 µM

Also, CC(C)c1[nH]nc2c(NCc3ccc(-c4ccccn4)cc3)nc(SCCN)nc12 please.
0.089 µM

Also, C=CCC(N[C@H](CO)c1ccccc1)c1ccccn1 (stereo partly specified) please.
> 100 µM

====

# Test system: OVCAR-8 ovarian
# Method Summary: NCI tumour cell line growth inhibition, 48 h
Readout Kind: TGI

> print(dat)
                                chem.smiles  measurement.target  readout.kind    result
1  COc1c2cc([N+](=O)[O-])cc1CN(C(=O)C(F)(F)F)CCOCCN(C(=O)C(F)(F)F)C2     OVCAR-8 ovarian           TGI  > 100 µM
2  Cc1ccc(-c2c3c(nn2-c2ccc(S(=O)(=O)NC(=O)NC4CCCCC4)cc2)-c2ccccc2C3)cc1     OVCAR-8 ovarian           TGI   70.7 µM
3  COc1ccc(-c2c(-c3ccccc3)c(C)nc3[nH]c(=S)[nH]c(=S)c23)cc1OC     OVCAR-8 ovarian           TGI  > 100 µM
4  c1ccc(C2=NN=C3C(c4ccccc4)=Nc4ccccc4N3C2)cc1     OVCAR-8 ovarian           TGI  > 100 µM

Continue with the compound presented below.
Please look up its TGI: O=C1C[C@@H]2[C@@H](c3ccccc3)[C@@H]3C(=O)c4ccccc4NC(=O)[C@H]3[C@]2(O)c2ccccc2N1
> 100 µM
